# Tested on: SARS-CoV-2
# protocol_text: Viral inhibition by Spike immunohistochemistry (IHC) assay in A549-ACE2 cells
# Assay type: cell-based
# protocol_conditions: read-out: IC-50, Anti-SARS-CoV-2
readout_kind: pIC50
For clarity, pIC50 is expressed as the negative log10 of concentration in mol/L.

// fetch pIC50 for COc1cccc2[nH]c(C(=O)N[C@@H](CC(C)C)C(=O)N[C@@H](C[C@@H]3CCNC3=O)C(=O)CO)cc12 [PF-00835231, reference compound] ; system: SARS-CoV-2
6.64

---

# Test system: SARS-CoV-2 Omicron strain
# protocol_text: microbe, parasite or virus in culture
# Assay type: cell-based
# protocol_conditions: Severe acute respiratory syndrome coronavirus 2, plaque assay, read-out: efficacy (viral titer reduction)
readout_kind: pIC50
API: returns pIC50 as number; meaning -log10 of concentration in mol/L.

Retrieve pIC50 measured for CCC(CC)COC(=O)[C@H](C)N[P@](=O)(OC[C@H]1O[C@@](C#N)(c2ccc3c(N)ncnn23)[C@H](O)[C@@H]1O)Oc1ccccc1 [Remdesivir, reference compound] and print it.
6.90
